Every entry's value here was drawn from ChEMBL document CHEMBL3867467.

- Run description: in vitro
- Conditions used: human, plasma
- Description: Fraction unbound in human plasma at 10 uM
Metric: fraction unbound at 10 µM

Here are 2 compounds together with their reported answers.
1. COc1ccc([C@@H](Oc2ccc3c(cnn3-c3ccc(F)cc3)c2)[C@H](C)NC(=O)C2CC2)cn1; 0.0015
2. C[C@H](NC(=O)C(F)(F)F)[C@H](Oc1ccc2c(cnn2-c2ccc(F)cc2)c1)c1ccccc1; 0.0001

Please fill in: fraction unbound at 10 µM reported for C[C@]12C=CC(=O)C=C1CC[C@@H]1[C@@H]2[C@@H](O)C[C@@]2(C)[C@H]1CC[C@]2(O)C(=O)CO = > 0.41

* * *

- Run description: in vivo
- Conditions used: Wistar, rat, iv, 1 umol/kg
Assignment: determine reported half-life for the given molecules.
Answers are plain numbers, in h.

1) C[C@H](NC(=O)C(F)(F)F)[C@H](Oc1ccc2c(cnn2-c2ccc(F)cc2)c1)c1ccccc1; 11

Here is another molecule to look at.
Please fill in: half-life reported for C[C@]12C=CC(=O)C=C1CC[C@@H]1[C@@H]2[C@@H](O)C[C@@]2(C)[C@H]1CC[C@]2(O)C(=O)CO = 0.27
